target: T1, rat serum albumin (rat, UniProt P02770 25-608); test: SPR (Biacore 8K), albumin immobilized on CM5 chip, 25 C, 1:1 kinetic fit
T1 construct: Bought protein, immobilized on a CM5 chip by amine coupling; also called Rat SA
pKd: −log10 of the molar value.
Reported Metric: pKd

INSERT INTO assay_data (binder, value_reported) VALUES
  ('RLN Analog 14 (other, Single-chain fusion: VHH - (PGPQ)8 L1 - RLN2 A chain (desA1-4) - L2 - RLN2 B chain (desB1)) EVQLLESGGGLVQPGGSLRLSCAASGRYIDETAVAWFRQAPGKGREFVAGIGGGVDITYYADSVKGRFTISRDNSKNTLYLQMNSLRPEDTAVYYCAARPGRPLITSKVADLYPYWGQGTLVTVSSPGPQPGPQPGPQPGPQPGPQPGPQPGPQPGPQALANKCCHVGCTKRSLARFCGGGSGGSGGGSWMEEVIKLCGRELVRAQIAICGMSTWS', 8.66),
  ('RLN Analog 10 (other, Single-chain fusion: RLN2 B chain (desB1) - L2 - RLN2 A chain - (PGPQ)8 L1 - VHH (C-terminal)) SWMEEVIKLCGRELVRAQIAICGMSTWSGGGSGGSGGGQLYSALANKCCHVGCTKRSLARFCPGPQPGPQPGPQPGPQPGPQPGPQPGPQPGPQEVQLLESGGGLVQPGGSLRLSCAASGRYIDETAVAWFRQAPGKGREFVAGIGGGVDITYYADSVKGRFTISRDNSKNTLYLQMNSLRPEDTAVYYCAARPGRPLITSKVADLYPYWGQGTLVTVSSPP', 8.11),
  ('RLN Analog 9 (other, Single-chain fusion: RLN2 B chain (desB1) - L2 - RLN2 A chain - (G4Q)5 L1 - VHH (C-terminal)) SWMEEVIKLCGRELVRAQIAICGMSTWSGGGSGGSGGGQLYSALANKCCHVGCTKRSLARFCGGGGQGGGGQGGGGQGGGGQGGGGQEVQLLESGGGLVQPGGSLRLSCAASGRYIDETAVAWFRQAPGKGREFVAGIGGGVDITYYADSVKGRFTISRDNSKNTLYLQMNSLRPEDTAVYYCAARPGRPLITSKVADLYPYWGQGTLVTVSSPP', 8.09);

FYI, the data here is from patent US20260125446A1.
